From: paper PMC11684029

- EXPERIMENTAL DETAILS: plasma protein binding, equilibrium dialysis
- Assay type: in vitro ADME, human
- CONDITION DESCRIPTION: fraction unbound
QUANTITY NAME: human fuplasma

| COMPOUND | QUANTITY NAME | RECORDED MEASUREMENT |
| --- | --- | --- |
| Cn1nc(-c2ccnn2C)cc1CNC(=O)c1cc(-c2ccco2)ccc1Cl [Compound 19d] | human fuplasma | 0.03 |
| Cn1nc(C(F)(F)F)cc1CNC(=O)c1cc(-c2ccco2)ccc1Cl [Compound 15f] | human fuplasma | 0.036 |
| O=C(NCc1cnn2ccccc12)c1cc(-c2ccco2)ccc1Cl [Compound 9k] | human fuplasma | 0.036 |
| Cn1nc(-c2ccccc2F)cc1CNC(=O)c1cc(-c2ccco2)ccc1Cl [Compound 19b] | human fuplasma | 0.002 |
| O=C(NCc1cnc(-c2cccs2)s1)c1cc(-c2ccco2)ccc1Cl [Compound 15e] | human fuplasma | 0.001 |
| O=C(NCc1cc(-c2ccccc2)no1)c1cc(-c2ccco2)ccc1Cl [Compound 15a] | human fuplasma | 0.001 |
| O=C(NCc1noc(-c2ccccc2)n1)c1cc(-c2ccco2)ccc1Cl [Compound 15b] | human fuplasma | 0.001 |
| Cn1nc(-c2cccnc2)cc1CNC(=O)c1cc(-c2ccco2)ccc1Cl [Compound 19c] | human fuplasma | 0.023 |
| Cn1nc(-c2cccs2)cc1CNC(=O)c1cc(-c2ccco2)ccc1Cl [Compound 19a] | human fuplasma | 0.002 |

---

- EXPERIMENTAL DETAILS: intrinsic clearance, predicted hepatic clearance
- Assay type: in vitro ADME, human
- CONDITION DESCRIPTION: in vitro predicted hepatic clearance

| COMPOUND | CLhep, human, L/h/kg |
| --- | --- |
| O=C(NCc1cc(-c2ccccc2)no1)c1cc(-c2ccco2)ccc1Cl [Compound 15a] | 1.16 |
| O=C(NCc1noc(-c2ccccc2)n1)c1cc(-c2ccco2)ccc1Cl [Compound 15b] | 1.19 |
| Cn1nc(-c2ccccc2F)cc1CNC(=O)c1cc(-c2ccco2)ccc1Cl [Compound 19b] | 1.12 |
| Cn1nc(-c2cccnc2)cc1CNC(=O)c1cc(-c2ccco2)ccc1Cl [Compound 19c] | 1.13 |
| Cn1nc(C(F)(F)F)cc1CNC(=O)c1cc(-c2ccco2)ccc1Cl [Compound 15f] | 1.22 |
| Cn1nc(-c2cccs2)cc1CNC(=O)c1cc(-c2ccco2)ccc1Cl [Compound 19a] | 1.14 |
| O=C(NCc1cnn2ccccc12)c1cc(-c2ccco2)ccc1Cl | 1.19 |
| O=C(NCc1cnc(-c2cccs2)s1)c1cc(-c2ccco2)ccc1Cl [Compound 15e] | 1.18 |

---

- MEASUREMENT TARGET: 1A2 (Homo sapiens, UniProt P05177)
- Construct: 0.1 mg/mL human liver microsomes (HLM) and Substrate Mix; from tissue; host or cells: human liver microsomes
- Sequence (P05177 1-516): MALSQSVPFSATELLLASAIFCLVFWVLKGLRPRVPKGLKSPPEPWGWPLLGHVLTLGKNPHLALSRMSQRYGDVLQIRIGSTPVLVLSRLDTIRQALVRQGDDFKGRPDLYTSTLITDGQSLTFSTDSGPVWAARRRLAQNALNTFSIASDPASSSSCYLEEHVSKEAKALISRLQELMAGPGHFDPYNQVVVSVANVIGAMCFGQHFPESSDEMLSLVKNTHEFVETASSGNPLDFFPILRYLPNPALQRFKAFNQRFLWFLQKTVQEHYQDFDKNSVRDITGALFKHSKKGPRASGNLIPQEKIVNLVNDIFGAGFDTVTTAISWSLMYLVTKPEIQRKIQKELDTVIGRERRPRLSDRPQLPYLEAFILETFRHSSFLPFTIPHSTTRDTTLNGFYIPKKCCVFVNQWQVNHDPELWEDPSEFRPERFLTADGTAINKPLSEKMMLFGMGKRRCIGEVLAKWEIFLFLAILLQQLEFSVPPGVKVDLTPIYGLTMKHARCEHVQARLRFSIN
- EXPERIMENTAL DETAILS: inhibition of cytochrome P450 enzymes
- Assay type: in vitro ADME
- CONDITION DESCRIPTION: human liver microsomes; read-out: CYP450 1A2 inhibition

| MOLECULE | IC50 |
| --- | --- |
| Cn1nc(-c2ccnn2C)cc1CNC(=O)c1cc(-c2ccco2)ccc1Cl [Compound 19d] | 17 µM |
